Source of measurements: ChEMBL document CHEMBL1136837

tested on: Human betaherpesvirus 6; experiment: Antiviral activity against Human herpesvirus 6B; format: functional, organism-based
# Lookup of reported IC50 keyed by entry
endpoint name: IC50

1. CC(C)Nc1nc2cc(Cl)c(Cl)cc2n1[C@H]1O[C@@H](CO)[C@H](O)[C@@H]1O = 106 µM
2. O[C@@H]1[C@H](O)[C@H](O)CO[C@H]1n1c(Br)nc2cc(Cl)c(Cl)cc21 = 95 µM
3. OC[C@H]1O[C@@H](n2c(Br)nc3cc(Cl)c(Cl)cc32)[C@H](O)[C@@H]1O = 125 µM
4. Nc1nc2c(ncn2/C=C2\CC2(CO)CO)c(=O)[nH]1 = 43 µM
